assay: Reversal of multi-drug resistance in human KVB cells assessed as increase in PTX-induced cytotoxicity by measuring cell survival at 5 uM measured after 72 hrs incubation in presence of 100 nM paclitaxel by MTT assay relative to control; assay type: functional, KBV
Decide using Activity alone. Strictly below 60%: label 1. Equal to or above 60%: label 0.

molecule-smiles	label-value
CC(C)(O)[C@H]1CC[C@@](C)([C@H]2CC[C@]3(C)[C@@H]2[C@H](O)C[C@@H]2[C@@]4(C)CC[C@H](NC(=O)[C@@H]5CCC(=O)N5)C(C)(C)[C@@H]4CC[C@]23C)O1	label 0
CC(C)(C)OC(=O)N1CCCC[C@@H]1C(=O)N[C@H]1CC[C@]2(C)[C@H]3C[C@@H](O)[C@@H]4[C@@H]([C@]5(C)CC[C@H](C(C)(C)O)O5)CC[C@@]4(C)[C@]3(C)CC[C@H]2C1(C)C	label 1
CC(C)(C)OC(=O)N1C[C@H](F)C[C@H]1C(=O)N[C@H]1CC[C@]2(C)[C@H]3C[C@@H](O)[C@@H]4[C@@H]([C@]5(C)CC[C@H](C(C)(C)O)O5)CC[C@@]4(C)[C@]3(C)CC[C@H]2C1(C)C	label 1
CC(C)(O)[C@H]1CC[C@@](C)([C@H]2CC[C@]3(C)[C@@H]2[C@H](O)C[C@@H]2[C@@]4(C)CC[C@H](NC(=O)[C@@H]5CC(F)(F)CN5)C(C)(C)[C@@H]4CC[C@]23C)O1	label 0
CC(C)(C)OC(=O)N1CC[C@@H](C(=O)N[C@H]2CC[C@]3(C)[C@H]4C[C@@H](O)[C@@H]5[C@@H]([C@]6(C)CC[C@H](C(C)(C)O)O6)CC[C@@]5(C)[C@]4(C)CC[C@H]3C2(C)C)C1	label 1
CC(C)(O)[C@H]1CC[C@@](C)([C@H]2CC[C@]3(C)[C@@H]2[C@H](O)C[C@@H]2[C@@]4(C)CC[C@H](NC(=O)[C@@H]5C[C@@H](F)CN5)C(C)(C)[C@@H]4CC[C@]23C)O1	label 0
